- method: in vivo
- test-parameters: male, beagle, dog, iv, 1 mg/kg
measurement-name: AUC(0-t) (ng·h/mL)

INSERT INTO assay_data (compound, measurement_units, recorded_value) VALUES
  ('COC[C@@H](NC(=O)C1CCCC(F)(F)C1)C(=O)N[C@H](Cc1ccccc1)C(=O)C(=O)NCc1nccs1 (stereo partly shown)', 'ng·h/mL', 624);

* * *

- method: in vivo
- test-parameters: male, beagle, dog, iv, 1 mg/kg
measurement-name: AUC(0-inf) (ng·h/mL)

INSERT INTO results (molecule, recorded_value) VALUES
  ('COC[C@@H](NC(=O)C1CCCC(F)(F)C1)C(=O)N[C@H](Cc1ccccc1)C(=O)C(=O)NCc1nccs1 (stereo partly shown)', 628);

* * *

Below, each entry is listed with its recorded remaining at […].
- method: in vitro
- Assay type: in vitro ADME
- test-parameters: human, microsomes; HLM 0.5 mg/mL, 1 μM, 15 min, Mean; read-out: Percent Remaining (%) 15 min
measurement-name: remaining at […] (%)

INSERT INTO results (compound, measurement_name, recorded_value) VALUES
  ('O=C(CC1CC(F)(F)C1)NCC(=O)N[C@H](Cc1ccccc1)C(=O)C(=O)NCc1nccs1', 'remaining at […]', 63.1),
  ('O=C(c1ccc(F)cc1)C1CCN(CCn2c(=O)[nH]c3ccccc3c2=O)CC1 [Ketanserin, reference compound]', 'remaining at […]', 62.2),
  ('C[C@@H](NC(=O)C1CCCC(F)(F)C1)C(=O)N[C@H](Cc1ccccc1)C(=O)C(=O)NCc1nccs1 (stereo partly drawn)', 'remaining at […]', 64.2),
  ('COC[C@@H](NC(=O)C1CCC(F)(F)CC1)C(=O)N[C@H](Cc1ccccc1)C(=O)C(=O)NCc1nccs1', 'remaining at […]', 73.2),
  ('CC(C)(C)[C@H](NC(=O)C(F)(F)F)C(=O)N1C[C@H]2[C@@H]([C@H]1C(=O)N[C@H](C#N)C[C@@H]1CCNC1=O)C2(C)C [Nirmatrelvir, reference compound]', 'remaining at […]', 60),
  ('COC[C@@H](NC(=O)C1CCCC(F)(F)C1)C(=O)N[C@H](Cc1ccccc1)C(=O)C(=O)NCc1nccs1 (stereo partly drawn)', 'remaining at […]', 65.4),
  ('C[C@@H](NC(=O)C1CCC(F)(F)CC1)C(=O)N[C@H](Cc1ccccc1)C(=O)C(=O)NCc1nccs1', 'remaining at […]', 73.2),
  ('C[C@@H](NC(=O)C1CCC(F)(F)C1)C(=O)N[C@H](Cc1ccccc1)C(=O)C(=O)NCc1nccs1 (stereo partly drawn)', 'remaining at […]', 73.5),
  ('COC[C@@H](NC(=O)CC1CC(F)(F)C1)C(=O)N[C@H](Cc1ccccc1)C(=O)C(=O)NCc1nccs1', 'remaining at […]', 71.5);

* * *

- method: in vivo
- test-parameters: male, ICR, mouse, po, 150 mg/kg
measurement-name: Tmax (min)

INSERT INTO assay_data (molecule, measurement_name, recorded_value) VALUES
  ('COC[C@@H](NC(=O)C1CCCC(F)(F)C1)C(=O)N[C@H](Cc1ccccc1)C(=O)C(=O)NCc1nccs1 (stereo partly shown) [SY110]', 'Tmax', 19.8);

* * *

- method: in vivo
- test-parameters: male, Sprague-Dawley, rat, po, 10 mg/kg
With a cut-off of 10000 ng·h/mL, any AUC(0-t) strictly below it is called met; any AUC(0-t) meeting it or above is called not met.

INSERT INTO assay_data (compound, cat) VALUES
  ('C[C@@H](NC(=O)CC1CC(F)(F)C1)C(=O)N[C@H](Cc1ccccc1)C(=O)C(=O)NCc1nccs1', 'met'),
  ('COC[C@@H](NC(=O)C1CCC(F)(F)CC1)C(=O)N[C@H](Cc1ccccc1)C(=O)C(=O)NCc1nccs1', 'not met'),
  ('C[C@@H](NC(=O)C1CCC(F)(F)C1)C(=O)N[C@H](Cc1ccccc1)C(=O)C(=O)NCc1nccs1 (stereo partly drawn)', 'met'),
  ('COC[C@@H](NC(=O)CC1CC(F)(F)C1)C(=O)N[C@H](Cc1ccccc1)C(=O)C(=O)NCc1nccs1', 'not met'),
  ('COC[C@@H](NC(=O)C1CCCC(F)(F)C1)C(=O)N[C@H](Cc1ccccc1)C(=O)C(=O)NCc1nccs1 (stereo partly drawn)', 'not met'),
  ('C[C@@H](NC(=O)C1CCC(F)(F)CC1)C(=O)N[C@H](Cc1ccccc1)C(=O)C(=O)NCc1nccs1', 'met');

* * *

- target-or-test-system: CYP3A4 (Homo sapiens)
- Construct: Add 400 μL 0.2 mg/mL HLM; from tissue; host or cells: human liver microsomes (HLM)
- Sequence (P08684 whole entry): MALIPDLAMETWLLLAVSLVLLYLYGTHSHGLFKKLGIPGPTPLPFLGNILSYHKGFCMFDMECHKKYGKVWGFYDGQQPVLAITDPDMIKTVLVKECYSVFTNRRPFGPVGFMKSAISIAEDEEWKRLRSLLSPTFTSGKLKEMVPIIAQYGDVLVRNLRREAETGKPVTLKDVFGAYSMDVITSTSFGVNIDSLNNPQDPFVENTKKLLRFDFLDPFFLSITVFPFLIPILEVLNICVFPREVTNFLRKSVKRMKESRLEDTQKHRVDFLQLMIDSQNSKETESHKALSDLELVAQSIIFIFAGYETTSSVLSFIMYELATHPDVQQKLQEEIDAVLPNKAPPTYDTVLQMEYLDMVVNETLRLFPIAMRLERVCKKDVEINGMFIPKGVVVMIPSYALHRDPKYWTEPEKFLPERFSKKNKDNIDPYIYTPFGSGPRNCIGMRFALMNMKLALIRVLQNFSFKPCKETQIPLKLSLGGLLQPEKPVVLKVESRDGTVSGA
- method: biochemical
- Type: in vitro ADME
- test-parameters: CYP3A4, text, substrate not stated there
- Procedure: Preheat 0.1 M pH 7.4 K/Mg-buffer at 37 °C. The reference inhibitors for this assay are α-Naphthoflavone (1A2), Ticlopidine (2B6), Montelukast (2C8), Sulfaphenazole (2C9), Omeprazole (2C19), Quinidine (2D6), Ketoconazole (3A4). Test compound and reference inhibitors were dissolved in ACN. NADPH cofactor was dissolved in K/Mg-buffer. […]
pIC50: −log10 of the molar value.
measurement-name: pIC50

INSERT INTO results (compound, recorded_value) VALUES
  ('COC[C@@H](NC(=O)C1CCCC(F)(F)C1)C(=O)N[C@H](Cc1ccccc1)C(=O)C(=O)NCc1nccs1 (stereo partly shown) [SY110]', '< 4.52');

* * *

- target-or-test-system: hERG channel (Homo sapiens)
- Sequence (Q12809 whole entry): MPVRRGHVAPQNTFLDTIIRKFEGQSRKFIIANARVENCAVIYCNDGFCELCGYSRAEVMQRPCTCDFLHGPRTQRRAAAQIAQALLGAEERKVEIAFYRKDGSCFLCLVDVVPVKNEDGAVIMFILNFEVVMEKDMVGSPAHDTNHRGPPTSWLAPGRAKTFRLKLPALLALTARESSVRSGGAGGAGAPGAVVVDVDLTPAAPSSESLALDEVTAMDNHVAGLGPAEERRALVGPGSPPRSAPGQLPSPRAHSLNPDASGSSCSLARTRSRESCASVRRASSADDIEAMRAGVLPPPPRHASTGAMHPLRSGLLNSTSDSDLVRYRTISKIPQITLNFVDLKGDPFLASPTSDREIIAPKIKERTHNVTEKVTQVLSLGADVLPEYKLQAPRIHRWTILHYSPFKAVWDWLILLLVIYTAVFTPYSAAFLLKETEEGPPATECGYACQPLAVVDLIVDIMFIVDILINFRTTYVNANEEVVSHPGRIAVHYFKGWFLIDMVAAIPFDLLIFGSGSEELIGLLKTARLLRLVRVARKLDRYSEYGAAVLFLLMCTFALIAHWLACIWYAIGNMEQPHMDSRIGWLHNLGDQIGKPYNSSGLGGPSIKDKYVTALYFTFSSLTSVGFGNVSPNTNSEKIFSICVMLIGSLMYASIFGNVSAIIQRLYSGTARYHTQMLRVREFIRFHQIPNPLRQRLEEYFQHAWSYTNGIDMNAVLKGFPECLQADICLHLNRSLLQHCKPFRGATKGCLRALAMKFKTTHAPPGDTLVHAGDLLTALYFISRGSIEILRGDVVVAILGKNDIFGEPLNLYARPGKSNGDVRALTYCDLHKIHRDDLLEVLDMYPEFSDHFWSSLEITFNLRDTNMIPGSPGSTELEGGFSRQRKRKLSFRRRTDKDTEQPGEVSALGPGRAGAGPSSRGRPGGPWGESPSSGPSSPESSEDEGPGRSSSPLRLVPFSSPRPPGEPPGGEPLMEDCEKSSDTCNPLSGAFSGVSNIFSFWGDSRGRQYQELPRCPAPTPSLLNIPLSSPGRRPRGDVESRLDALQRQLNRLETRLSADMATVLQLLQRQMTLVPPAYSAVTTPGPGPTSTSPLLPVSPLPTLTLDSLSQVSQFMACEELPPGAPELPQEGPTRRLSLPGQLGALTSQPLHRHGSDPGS
pIC50: −log10 of the molar value.
measurement-name: pIC50

INSERT INTO assay_data (compound, measurement_name, recorded_value) VALUES
  ('COC[C@@H](NC(=O)C1CCCC(F)(F)C1)C(=O)N[C@H](Cc1ccccc1)C(=O)C(=O)NCc1nccs1 (stereo partly shown) [SY110]', 'pIC50', '< 4.52');

* * *

- method: in vivo
- test-parameters: male, Sprague-Dawley, rat, iv, 1 mg/kg
Below, each entry is listed with its recorded AUC(0-inf).
measurement-name: AUC(0-inf) (ng·h/mL)

INSERT INTO measurements (molecule, recorded_value) VALUES
  ('COC[C@@H](NC(=O)C1CCC(F)(F)CC1)C(=O)N[C@H](Cc1ccccc1)C(=O)C(=O)NCc1nccs1', 2830),
  ('C[C@@H](NC(=O)CC1CC(F)(F)C1)C(=O)N[C@H](Cc1ccccc1)C(=O)C(=O)NCc1nccs1', 2250),
  ('C[C@@H](NC(=O)C1CCC(F)(F)CC1)C(=O)N[C@H](Cc1ccccc1)C(=O)C(=O)NCc1nccs1', 1020),
  ('C[C@@H](NC(=O)C1CCC(F)(F)C1)C(=O)N[C@H](Cc1ccccc1)C(=O)C(=O)NCc1nccs1 (stereo partly drawn)', 1330),
  ('COC[C@@H](NC(=O)C1CCCC(F)(F)C1)C(=O)N[C@H](Cc1ccccc1)C(=O)C(=O)NCc1nccs1 (stereo partly drawn)', 2320),
  ('COC[C@@H](NC(=O)CC1CC(F)(F)C1)C(=O)N[C@H](Cc1ccccc1)C(=O)C(=O)NCc1nccs1', 2390);

* * *

- method: in vivo
- test-parameters: male, cynomolgus monkey, iv, 1 mg/kg
measurement-name: clearance (mL/min/kg)

INSERT INTO measurements (molecule, recorded_value) VALUES
  ('COC[C@@H](NC(=O)C1CCCC(F)(F)C1)C(=O)N[C@H](Cc1ccccc1)C(=O)C(=O)NCc1nccs1 (stereo partly shown)', 33.3);

* * *

- method: in vivo
- test-parameters: male, ICR, mouse, iv, 1 mg/kg
measurement-name: clearance

INSERT INTO results (molecule, recorded_value) VALUES
  ('COC[C@@H](NC(=O)C1CCCC(F)(F)C1)C(=O)N[C@H](Cc1ccccc1)C(=O)C(=O)NCc1nccs1 (stereo partly shown) [SY110]', '192 mL/min/kg');

* * *

- method: in vivo
- test-parameters: male, beagle, dog, po, 10 mg/kg
measurement-name: half-life (min)

INSERT INTO results (compound, measurement_units, recorded_value) VALUES
  ('COC[C@@H](NC(=O)C1CCCC(F)(F)C1)C(=O)N[C@H](Cc1ccccc1)C(=O)C(=O)NCc1nccs1 (stereo partly shown) [SY110]', 'min', 335);

* * *

- method: in vitro
- Type: in vitro ADME
- test-parameters: human, microsomes; HLM 0.5 mg/mL, 1 μM
half-life below 30 min gives No; half-life at or above it gives Yes.

INSERT INTO measurements (molecule, cat) VALUES
  ('O=C(c1ccc(F)cc1)C1CCN(CCn2c(=O)[nH]c3ccccc3c2=O)CC1 [Ketanserin, reference compound]', 'No'),
  ('O=C(CC1CC(F)(F)C1)NCC(=O)N[C@H](Cc1ccccc1)C(=O)C(=O)NCc1nccs1', 'No'),
  ('C[C@@H](NC(=O)C1CCCC(F)(F)C1)C(=O)N[C@H](Cc1ccccc1)C(=O)C(=O)NCc1nccs1 (some centres unmarked)', 'No'),
  ('C[C@@H](NC(=O)C1CCC(F)(F)C1)C(=O)N[C@H](Cc1ccccc1)C(=O)C(=O)NCc1nccs1 (some centres unmarked)', 'Yes'),
  ('C[C@@H](NC(=O)C1CCC(F)(F)CC1)C(=O)N[C@H](Cc1ccccc1)C(=O)C(=O)NCc1nccs1', 'Yes'),
  ('CC(C)(C)[C@H](NC(=O)C(F)(F)F)C(=O)N1C[C@H]2[C@@H]([C@H]1C(=O)N[C@H](C#N)C[C@@H]1CCNC1=O)C2(C)C [Nirmatrelvir, reference compound]', 'No'),
  ('COC[C@@H](NC(=O)C1CCC(F)(F)CC1)C(=O)N[C@H](Cc1ccccc1)C(=O)C(=O)NCc1nccs1', 'Yes');
